target: MAPK11 (human) (UniProt Q15759); experiment: radiometric filter-binding kinase assay; settings: compound 10.0 µM
Sequence (Q15759 whole entry, looked up): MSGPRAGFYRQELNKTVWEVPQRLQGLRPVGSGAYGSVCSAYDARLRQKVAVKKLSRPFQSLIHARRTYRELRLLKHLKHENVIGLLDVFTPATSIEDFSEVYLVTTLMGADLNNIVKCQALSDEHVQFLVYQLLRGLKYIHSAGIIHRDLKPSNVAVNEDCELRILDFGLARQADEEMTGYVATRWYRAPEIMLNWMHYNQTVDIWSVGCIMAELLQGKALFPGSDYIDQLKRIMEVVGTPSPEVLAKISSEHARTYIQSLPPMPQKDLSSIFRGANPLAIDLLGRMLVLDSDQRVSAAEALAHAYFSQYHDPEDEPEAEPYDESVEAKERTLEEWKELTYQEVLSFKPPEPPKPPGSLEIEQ
assayMetric: residual activity (%)

Examples with their reported residual activity follow.
compound | testedOn | testValue
CCc1cncnc1N1CCN(Cc2nc3cc(C(F)(F)F)ccc3[nH]2)CC1 | MAPK11 (human) (UniProt Q15759) | 97
CC(C)(C#N)c1ccc(N2C(=O)OCc3cnc4ccc(-c5cnc6ccccc6c5)cc4c32)cc1 | MAPK11 (human) (UniProt Q15759) | 103
C=CC(=O)N1CCC[C@@H](n2nc(-c3ccc(Oc4ccccc4)cc3)c3c(N)ncnc32)C1 | MAPK11 (human) (UniProt Q15759) | 68

A. O=C1Nc2nc(-c3c(O)cccc3OCC3CC3)cc(C3CCCNC3)c2CO1 (stereo not given)
B. COC(=O)/C=C/C(=O)OC
Problem: # argmax over residual activity for candidates A and B Give the label under which the chosen entry appears.
Solution: B

---

biological target: UniProt P05129; experiment: radiometric filter-binding kinase assay; settings: compound 1.0 µM
assayMetric: residual activity (%)

a. CCCCCc1ccc(/C=C/[C@H](O)[C@@H](CO)NC)cc1
b. COc1ccc(-n2ncc3cnc(Nc4cc(OC)c(OC)c(OCCCN5CCN(C)CC5)c4)nc32)cc1
Problem: # argmax over residual activity for candidates a and b Give the label under which the chosen entry appears.
Solution: a
(a: 109%, b: 71%)

---

biological target: BRSK2 (human) (UniProt Q8IWQ3); assay: radiometric filter-binding kinase assay; details: compound 1.0 µM
Sequence (Q8IWQ3 whole entry, looked up): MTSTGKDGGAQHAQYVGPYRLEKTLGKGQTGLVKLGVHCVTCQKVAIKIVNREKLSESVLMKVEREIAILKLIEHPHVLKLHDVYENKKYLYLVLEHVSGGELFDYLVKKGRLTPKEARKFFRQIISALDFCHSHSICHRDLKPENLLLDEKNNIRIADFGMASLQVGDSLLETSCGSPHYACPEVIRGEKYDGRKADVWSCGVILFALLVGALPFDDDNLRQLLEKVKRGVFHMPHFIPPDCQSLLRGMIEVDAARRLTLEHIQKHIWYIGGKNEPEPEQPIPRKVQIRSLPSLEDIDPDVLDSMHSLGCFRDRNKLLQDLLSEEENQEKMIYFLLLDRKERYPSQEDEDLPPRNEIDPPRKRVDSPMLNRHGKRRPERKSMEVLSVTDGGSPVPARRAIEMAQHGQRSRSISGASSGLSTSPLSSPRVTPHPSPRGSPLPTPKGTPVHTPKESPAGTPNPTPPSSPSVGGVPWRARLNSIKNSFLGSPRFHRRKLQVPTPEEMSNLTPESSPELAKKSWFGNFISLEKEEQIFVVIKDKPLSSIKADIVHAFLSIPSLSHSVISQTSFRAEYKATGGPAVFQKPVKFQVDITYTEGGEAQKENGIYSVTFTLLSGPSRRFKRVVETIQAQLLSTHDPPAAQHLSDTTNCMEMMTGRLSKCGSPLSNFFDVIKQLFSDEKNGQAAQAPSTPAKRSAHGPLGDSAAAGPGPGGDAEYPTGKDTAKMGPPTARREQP
assayMetric: residual activity (%)

compound | residual activity / %
CC(C)(C#N)c1ccc(N2C(=O)OCc3cnc4ccc(-c5cnc6ccccc6c5)cc4c32)cc1 | 89
CCCCCc1ccc(/C=C/[C@H](O)[C@@H](CO)NC)cc1 | 108
Nc1cccc2c1CN(C1CCC(=O)NC1=O)C2=O (stereo unspecified) | 98
O=c1c(O)c(-c2ccc(O)c(O)c2)oc2cc(O)c(O)c(O)c12 | 71
Cn1nc(Nc2ccc(F)cc2)c2c(N)ncnc21 | 99
O=C1NC(=S)N[C@@H]1Cc1c[nH]c2ccccc12 | 79
Cc1cccc(-c2nn(C(=S)Nc3ccccc3)cc2-c2ccnc3ccccc23)n1 | 92
O=C(O)c1cc(N=Nc2ccc(S(=O)(=O)Nc3ccccn3)cc2)ccc1O | 106
COc1cc(O)c2c(c1)/C=C/C[C@H](O)[C@H](O)C(=O)/C=C\C[C@H](C)OC2=O | 88

I. CN1C(=O)[C@@H](Cc2c[nH]c3ccccc23)NC1=S
II. Oc1ccc2ccccc2c1SSc1c(O)ccc2ccccc12
Problem: Hi! Which is lower in terms of residual activity, the first one I or the second one II ? Give the label under which the chosen entry appears.
Solution: II
(II: 39%, I: 91%)

---

tested on: AKT1 (human), P31749 [S473D]; test: radiometric filter-binding kinase assay; conditions: compound 1.0 µM
Sequence (P31749 whole entry S473D, looked up): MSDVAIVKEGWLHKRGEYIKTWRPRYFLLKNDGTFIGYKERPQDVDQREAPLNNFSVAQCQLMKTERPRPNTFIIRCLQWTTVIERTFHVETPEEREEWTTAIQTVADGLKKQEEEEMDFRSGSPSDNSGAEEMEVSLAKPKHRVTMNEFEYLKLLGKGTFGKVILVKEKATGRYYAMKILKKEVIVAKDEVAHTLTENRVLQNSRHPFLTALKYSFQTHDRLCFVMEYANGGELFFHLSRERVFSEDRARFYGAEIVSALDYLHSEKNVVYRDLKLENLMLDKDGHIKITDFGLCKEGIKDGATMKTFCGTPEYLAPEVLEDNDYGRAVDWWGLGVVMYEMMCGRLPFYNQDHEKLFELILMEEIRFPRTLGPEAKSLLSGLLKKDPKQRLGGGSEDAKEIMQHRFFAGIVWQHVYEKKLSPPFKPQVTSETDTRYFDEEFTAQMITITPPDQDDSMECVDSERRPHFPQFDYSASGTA
assayMetric: residual activity (%)

molecule | testValue
C=CC(=O)N1CCC[C@@H](n2nc(-c3ccc(Oc4ccccc4)cc3)c3c(N)ncnc32)C1 | 97
O=C(N[C@@H](COc1ccc2[nH]c(=O)[nH]c2c1)c1ccccc1)c1cccn(Cc2ccc(F)c(F)c2)c1=O | 97
O=C1Nc2nc(-c3c(O)cccc3OCC3CC3)cc(C3CCCNC3)c2CO1 (centres undefined) | 87
Cc1ccc(=O)n(-c2ccccc2)c1 | 108
